assay: binders of probe aHhip on microarray, primary screen, stem cell growth factor project, biochemical, small-molecule microarray, fluorescence 635/667 (AID 1087); details: higher = more signal;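 note: score merges spot fluorescence at 667nm with spot signal to noise ratio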
Recorded measurements of composite z-score, one per entry
// response body must contain only the number

Before answering, review these 3 worked examples.
[
  {
    "Compound": "CCCCC(CC)C(O)C1C=CC2C(=O)N(c3ccccc3)C(=O)C2N1Nc1ccccc1 (centres undefined)",
    "composite z-score": -0.0618
  },
  {
    "Compound": "COCCCNC(=O)[C@@]1(C)c2ccccc2C(=O)N(Cc2cc(C(F)(F)F)cc(C(F)(F)F)c2)[C@H]1c1ccc(CO)cc1",
    "composite z-score": -0.134
  },
  {
    "Compound": "CC(C)(C)OC(=O)CC[C@@]1(C(=O)NCCN2CCOCC2)N=C(c2ccc(OCCCO)cc2)O[C@@H]1c1ccccc1",
    "composite z-score": 0.167
  }
]

Note: attention shifts to another entry.
q: Value lookup for composite z-score; key = N#Cc1ccc(NN2C(C(O)c3ccc([N+](=O)[O-])cc3)C=CC3C(=O)N(c4ccccc4)C(=O)C32)cc1 (centres undefined)
a: -0.287

* * *

assay: FRG1 promoter luciferase signal modulators, primary screen, FRG1 inhibition for FSHD, cell-based, C2C12 myotubes, firefly/Renilla luciferase, luminescence (AID 1084); settings: higher = more signal, called active from +8 up or from −8 down
Respond with Criterion met for z-score values of 0.1 and above, Criterion not met for values below.

Would you please look over these solved cases?
[
  {
    "Compound": "Cc1ccccc1C(O)C1C=CC2C(=O)N(C)C(=O)C2N1N1CCCCC1 (configuration not stated)",
    "Qualitative Label": "Criterion met"
  },
  {
    "Compound": "COC(=O)c1ccc(C(O)C2C=CC3C(=O)N(c4ccccc4)C(=O)C3N2Nc2ccc(C#N)cc2)o1 (configuration not stated)",
    "Qualitative Label": "Criterion met"
  }
]

q: State whether the measured z-score reaches 0.1, counting equality as reaching it, for `O=c1cccc(CCc2ccccc2)o1`
a: Criterion met

q: State whether the measured z-score reaches 0.1, counting equality as reaching it, for `NC(=O)NCC#Cc1ccc2c(c1)[C@]1(C(=O)N2)[C@H](C(=O)N2CCCCCCC2)[C@H]2C(=O)O[C@H](c3ccccc3)[C@H](c3ccccc3)N2[C@@H]1c1ccc(OCCO)cc1`
a: Criterion met

q: State whether the measured z-score reaches 0.1, counting equality as reaching it, for `CCOC(=O)C[C@H]1[C@H](OC(=O)c2ccc(C(=O)c3ccccc3)cc2)[C@@H](NC(=O)C2CCCCC2)c2cc(OCCCO)ccc2N1C(=O)c1ccccc1`
a: Criterion not met

q: State whether the measured z-score reaches 0.1, counting equality as reaching it, for `CO[C@H]1O[C@H](CO)[C@@H](OC(=O)Nc2ccc(Oc3ccccc3)cc2)[C@H](OC(=O)Nc2ccccc2)[C@H]1OC(=O)Nc1ccccc1`
a: Criterion met

q: State whether the measured z-score reaches 0.1, counting equality as reaching it, for `CC(=O)NCCCC[C@@H]1NC(=O)[C@@H]2C[C@H](C(=O)NCCCCN(C)C)[C@H](c3ccc(O)cc3)N2C1=O`
a: Criterion not met

* * *

Recorded measurements of composite z-score, one per entry
biological target: Torsin-1A (Homo sapiens); test: small-molecule binders of mutant TOR1A in lysate, primary screen, cell lysate, small-molecule microarray, COS7 lysate, 635/667 nm fluorescence (AID 1150); conditions: COS7 hTOR1A mutant lysate, 635 nm fluorescence, higher = more signal;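 note: score pools 667 nm emission and signal to noise measuring lysate protein binding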
// response body must contain only the number

q: Record `C=C(CCCC)/C(=C/C[C@H](OC(C)=O)c1ccc(CO)o1)c1cnc2ccccc2c1` : what is its composite z-score with Torsin-1A (Homo sapiens)?
a: 1.08

q: Record `CC(=O)NCCCC[C@@H]1NC(=O)[C@H]2C[C@@H](C(=O)NCCCCCC[N+](C)(C)C)[C@@H](c3cccc(OCCO)c3)N2C1=O` : what is its composite z-score with Torsin-1A (Homo sapiens)?
a: 0.59

q: Record O=C1C2C=CC(C(O)c3ccc(F)cc3)N(Nc3ccccc3)C2C(=O)N1c1ccccc1 (stereo not drawn) : what is its composite z-score with Torsin-1A (Homo sapiens)?
a: -0.27
